Tested on: HT29 colon
Experiment: NCI-60 one-dose screen, 48 h (100 = growth as untreated, 0 = no growth, -100 = all killed)
Conditions: 10 µM unless noted
Compounds without any hit were thinned out: in the full panel of roughly 83,000, 20% have a hit.
endpoint.name: growth (%)
Numbers only, in %.

A selection of reference data follows.
{"chemical.string": "O=c1c2c3c(sc2n2c(-c4cc(-c5ccccc5)nn4-c4ccccc4)nnc2n1Cc1ccccc1)CCCC3", "growth (%)": 88.6}
{"chemical.string": "C[C@H]1[C@H]2[C@H]3CC[C@@H]4[C@@]5(C)C/C(=C/c6ccco6)C(=O)C(C)(C)[C@@H]5CC[C@@]4(C)[C@]3(C)CC[C@]23CO[C@]1(C)[C@@H](C(=O)/C=C\\c1ccco1)C3", "growth (%)": 105}
{"chemical.string": "N[C@@H](CCCCNCC(=O)O)C(=O)O", "growth (%)": 116}
{"chemical.string": "CCN(CC)c1nc(SCC(=O)Nc2nc3ccc(C)cc3s2)nc(-c2ccccc2)c1C#N", "growth (%)": 79.6}
{"chemical.string": "CCOC(CN=Cc1cc(C)c2[nH]c3ccccc3c2c1C)OCC", "growth (%)": 108}
{"chemical.string": "COc1ccc(-c2nc(SCCC(C)C)nc(N/N=C\\c3cccc([N+](=O)[O-])c3)c2C#N)cc1", "growth (%)": 30.3}
{"chemical.string": "CC1=NOC(=O)/C1=C\\c1ccc(O)cc1", "growth (%)": 106}
{"chemical.string": "COc1cccc(-c2nc3sccn3c2-c2ccnc(NCCNS(=O)(=O)c3ccc(C(F)(F)F)cc3)c2)c1", "growth (%)": 35.7}

Next up:
Returns the measured growth for the input compound. Input: "Cc1ccc(S(=O)(=O)N/N=C\c2cc(Cl)ccc2O)cc1"
103
